System: HeLa
protocol.description: Growth of cancer cell lines, MTT reactivity (HeLa)
Format: cell-based, human
condition.notes: mean drug concentration causing 50% cell killing, 3-4 experiments, 72 to 96 h, read-out: IC 50 (μM) HeLa
Overview of reported IC50 across a group of molecules:
Please respond with the number in µM and leave the unit unwritten.

As a guide, the following entries are already answered.
| molecule | IC50 (µM) |
| --- | --- |
| O=CCC(=O)[c-]1cccc1.[Fe+2].c1cc[cH-]c1 | 73.4 |
| O=C(CC(=O)C(Cl)(Cl)Cl)[c-]1cccc1.[Fe+2].c1cc[cH-]c1 | 37.7 |
| C1=CCCC=CCC1.O=C(C=C([O-])[c-]1cccc1)c1ccccc1.[Rh+].[Ru+2].c1cc[cH-]c1 [[Rh(brcm)(cod)]] | 16.2 |

What value of IC50 has been reported for the following molecule? `C1=CCCC=CCC1.O=C(C=C([O-])c1ccccc1)[c-]1cccc1.[Fe+2].[Rh+].c1cc[cH-]c1`
28.3

Let us now turn to C1=CCCC=CCC1.O=C(C=C([O-])[c-]1cccc1)[c-]1cccc1.[Fe+2].[Rh+].[Ru+2].c1cc[cH-]c1.c1cc[cH-]c1 [[Rh(fcrcm)(cod)]]
17.1

Let us now turn to C1=CCCC=CCC1.O=C(C=C([O-])C(F)(F)F)[c-]1cccc1.[Rh+].[Ru+2].c1cc[cH-]c1 [[Rh(rctfa)(cod)]]
54.7

Let us now turn to C1=CCCC=CCC1.O=C(C=C([O-])C(F)(F)F)[c-]1cccc1.[Fe+2].[Rh+].c1cc[cH-]c1 [Rh(fctfa)(cod)]
12.5

Let us now turn to C1=CCCC=CCC1.O=C(C=C[O-])[c-]1cccc1.[Rh+].[Ru+2].c1cc[cH-]c1 [[Rh(RcH)(cod)]]
52

Let us now turn to `C1=C\CC/C=C\CC/1.CC(=O)/C=C(/C)O.[Rh]`
97.3
